percent inhibition of Factor XI mRNA, relative to untreated control cells values by entry
# Test system: human Factor XI mRNA
# ASSAY_OVERVIEW: Dose-dependent inhibition in HepG2 cells, lipofectin (Example 4)
# Assay type: cell-based
# CONDITION_PARAMETERS: 9.375 nM, 16 hours
In the oligonucleotide strings, read from the 5' end, every base follows the letter of its sugar. An asterisk marks phosphorothioate; unmarked linkages are phosphodiester. Other units and linkages are bracketed, terminal groups are in braces. A string of capitals states the bases alone. e = 2'-O-(2-methoxyethyl) (MOE); [5mC] = 5-methylcytosine; d = 2'-deoxy (DNA)
Hi! Could you send only the number? It should be in %, unit omitted.

[[record]]
substance = "416925 (antisense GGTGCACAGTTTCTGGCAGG; 3-14-3 chimeric gapmer, wing sugar chemistry not given here, further chemistry not given here) [compound 416925]"
endpoint_value = 13

[[record]]
substance = "416858 (antisense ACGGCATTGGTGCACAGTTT; 5-10-5 gapmer, wing sugar chemistry not given here, further chemistry not given here) [compound 416858]"
endpoint_value = 0

[[record]]
substance = "416945 (antisense eA*eA*dT*dG*dT*d[5mC]*dT*dT*dT*dG*dT*dT*dG*d[5mC]*dA*eA*eG*e[5mC]*eG*e[5mC]) [compound 416945]"
endpoint_value = 34

[[record]]
substance = "412203 (antisense eA*eA*eT*eG*eT*d[5mC]*dT*dT*dT*dG*dT*dT*dG*d[5mC]*dA*eA*eG*e[5mC]*eG*e[5mC]) [compound 412203]"
endpoint_value = 33

[[record]]
substance = "416895 (antisense eT*eA*eT*dG*d[5mC]*d[5mC]*d[5mC]*dT*dT*d[5mC]*dA*dT*dG*dT*d[5mC]*dT*dA*eG*eG*eT) [compound 416895]"
endpoint_value = 39


[ask] Provide measured percent inhibition of Factor XI mRNA, relative to untreated control cells value, entry: 416923 (antisense eT*eG*e[5mC]*dA*d[5mC]*dA*dG*dT*dT*dT*d[5mC]*dT*dG*dG*d[5mC]*dA*dG*eG*e[5mC]*e[5mC]) [compound 416923]
[reply] 36

[ask] In one line, give reported percent inhibition of Factor XI mRNA, relative to untreated control cells of the entry 413467 (antisense eG*eG*eT*e[5mC]*e[5mC]*dA*d[5mC]*dA*dT*dA*dA*dA*dT*dG*dT*e[5mC]*eT*eT*eT*eG) [compound 413467] .
[reply] 35

[ask] Item 413474 (antisense eA*eG*e[5mC]*eA*eA*d[5mC]*d[5mC]*dG*dG*dG*dA*dT*dG*dA*dT*eG*eA*eG*eT*eG) [compound 413474] : provide percent inhibition of Factor XI mRNA, relative to untreated control cells
[reply] 29
